The reported numbers originate from the supplement of paper PMC11383364.

Record form. Attribute: percent difference in area under dose-response curve. Fill in for each entry.
- Test system: SUM149
- test-summary: percent difference in area under dose-response curve of relative cell number, RPMI vs HPLM; higher = drug relatively more effective in HPLM than RPMI (negative = less effective in HPLM)
- assay-conditions: treatment time: 72 h; dose range: 10-point, 1 nM to 20 µM; media compared: RPMI vs HPLM
Give bare numbers, in %.

These recorded examples may help you get a feel for the data.
INSERT INTO measurements (compound, uom, meas_value) VALUES
  ('CCc1nc(N)nc(N)c1-c1ccc(Cl)cc1 [Pyrimethamine]', '%', 33.6),
  ('O=c1[nH]cc(F)c(=O)[nH]1 [Adrucil]', '%', 1.58),
  ('CC[C@]1(O)C[C@@H]2CN(CCc3c([nH]c4ccccc34)[C@@](C(=O)OC)(c3cc4c(cc3OC)N(C)[C@H]3[C@@](O)(C(=O)OC)[C@H](OC(C)=O)[C@]5(CC)C=CCN6CC[C@]43[C@@H]65)C2)C1 [Vinblastine]', '%', -27.2),
  ('CC(=O)OC[C@H]1O[C@@H]([S-])[C@H](OC(C)=O)[C@@H](OC(C)=O)[C@@H]1OC(C)=O.CCP(CC)CC.[Au+] [Auranofin]', '%', -10.3),
  ('C#CC[C@H](c1nc2cc(Cl)ccc2c(=O)n1Nc1ccccc1)N(CCCN)C(=O)c1cccc(Cl)c1F', '%', -7.78);

The following compounds each have a reported value; give each one's percent difference in area under dose-response curve.
1. c1ccc(Cn2nnc3c(Sc4nc5ccccc5o4)ncnc32)cc1
2. CN(CC(=O)N(Cc1ccc(C2CCCCC2)cc1)c1ccc(C(=O)O)cc1)S(=O)(=O)c1c(F)c(F)c(F)c(F)c1F
3. CO[C@@H](C(=O)N1Cc2[nH]nc(NC(=O)c3ccc(N4CCN(C)CC4)cc3)c2C1)c1ccccc1 [Danusertib]

Response given:
[0.823, 3.06, -17.3]

----------
- System: SUM149
- test-summary: percent difference in area under dose-response curve of relative cell number, RPMI vs HPLM; higher = drug relatively more effective in HPLM than RPMI (negative = less effective in HPLM)
- assay-conditions: treatment time: 72 h; dose range: 10-point, 1 nM to 20 µM; media compared: RPMI vs HPLM
measured-parameter: percent difference in area under dose-response curve (%)
Answers are plain numbers, in %.

These recorded examples may help you get a feel for the data.
INSERT INTO assay_data (compound, measured_on, uom, meas_value) VALUES
  ('CCCCc1nc2cc(/C=C/C(=O)NO)ccc2n1CCN(CC)CC', 'SUM149', '%', 0.47),
  ('CCC[C@H](NC(=O)/C(C#N)=C/c1cccc(Br)n1)c1ccccc1', 'SUM149', '%', 5.71),
  ('CCC[C@H](Nc1nc(-c2ccc(NC(=O)NCC)c(OC)c2)ncc1C)c1cccnc1', 'SUM149', '%', -15.1),
  ('COC1=C2C[C@@H](C)C[C@H](OC)[C@H](O)[C@@H](C)/C=C(\C)[C@H](OC(N)=O)[C@@H](OC)/C=C\C=C(/C)C(=O)NC(=CC1=O)C2=O', 'SUM149', '%', -5.2),
  ('C=CCn1c(=O)c2cnc(Nc3ccc(N4CCN(C)CC4)cc3)nc2n1-c1cccc(C(C)(C)O)n1', 'SUM149', '%', 0.0373),
  ('CCN(CCCOc1ccc2c(Nc3cc(CC(=O)Nc4cccc(F)c4)[nH]n3)ncnc2c1)CCOP(=O)(O)O', 'SUM149', '%', -20.6),
  ('CCn1c(-c2nonc2N)nc2c(C#CC(C)(C)O)ncc(OC[C@H]3CCCNC3)c21', 'SUM149', '%', 4.22),
  ('CCC(C)n1ncn(-c2ccc(N3CCN(c4ccc(OCC5COC(Cn6cncn6)(c6ccc(Cl)cc6Cl)O5)cc4)CC3)cc2)c1=O (stereo not given)', 'SUM149', '%', -12);

The following compounds each have a reported value; give each one's percent difference in area under dose-response curve.
1. CC1(C)C(N(O)C(=O)Nc2ccc(Cl)cc2)N(c2ccc(Cl)cc2)C(=O)N1CC(=O)NN=CC=Cc1ccc([N+](=O)[O-])o1 (stereo not given)
2. CS(=O)(=O)c1cccc(CNc2nc(Nc3ccc4c(c3)CCC(=O)N4)ncc2C(F)(F)F)c1

Response given:
-5.38
-3.53
